Experiment: antimalarial activity against Dd2 strain (AID 2302);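 note: 0% = DMSO untreated growth and 100% = chloroquine plus artemisinin killed control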
Details: P. falciparum Dd2 in RBCs, LDH growth readout, 72 h; at 2 µM; active compounds read high

- Compound: "Oc1cc2c(cc1CN1CCN(Cc3ccccc3F)CC1)CCC2"
  growth inhibition / %: 94
- Compound: "Cc1cc(-c2ccc3c(c2)CCN(CCCOc2ccc4c(c2)CCN4C(=O)/C=C/c2ccccc2Cl)CC3)no1"
  growth inhibition / %: 50
- Compound: "CC(C)(C)c1ccc(-c2ccccc2CNC(=O)c2cccc(O)c2)cc1"
  growth inhibition / %: 88
- Compound: "Cc1cnc(NCCc2ccc(F)cc2)nc1NCCC(=O)Nc1ccccc1"
  growth inhibition / %: 17
- Compound: "Cc1cccc(C(=O)Nc2ccc(N3CCCN(Cc4cccc(O)c4)CC3)cc2)c1"
  growth inhibition / %: 44
- Compound: "O=C(Nc1ccc(Cn2ncc(N3CCNCC3)c(Cl)c2=O)cc1)Nc1ccc(-c2ccccc2)cc1"
  growth inhibition / %: 33
- Compound: "NC(=O)c1cccc(C(=O)Nc2cccc(-c3ccc(-c4nc5ccccc5[nH]4)s3)c2)c1"
  growth inhibition / %: 69
- Compound: "Cc1nn(CC(C)C)c2sc(C(=O)N3CCN(S(=O)(=O)c4ccc(C#N)cc4)CC3)cc12"
  growth inhibition / %: 99
- Compound: "N#Cc1ccc(C=CC(=O)NC2CCC(CCN3CCc4ccc(-c5cnccn5)cc4CC3)CC2)cc1 (centres undefined)"
  growth inhibition / %: 87

###

Assay: antimalarial activity against Dd2 strain (AID 2302);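 note: 0% = DMSO untreated growth and 100% = chloroquine plus artemisinin killed control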
Conditions: P. falciparum Dd2 in RBCs, LDH growth readout, 72 h; at 2 µM; active compounds read high
Endpoint label: growth inhibition (%)

- Compound: "CCOc1cc(NCCCNc2ncc([N+](=O)[O-])cc2C)nc2ccccc12"
  Unit: "%"
  Recorded measurement: 64
- Compound: "CC12CN3CC(C)(CN(C1)C3c1cc(Br)ccc1O)C2O (stereo not given)"
  Unit: "%"
  Recorded measurement: 2
- Compound: "Cc1cc(N2CCN(CC3CCCCC3)CC2)nc(Nc2ccc(Br)cc2)n1"
  Unit: "%"
  Recorded measurement: 16
- Compound: "c1cc(-c2ccc(CNCCCN3CCOCC3)cc2)cc(-c2nc3ccccc3[nH]2)c1"
  Unit: "%"
  Recorded measurement: -1
- Compound: "COc1ccc(NC(=O)c2ccc(C=Cc3ccc(C(F)(F)F)cc3)cc2)cc1N1CCN(C)CC1"
  Unit: "%"
  Recorded measurement: 47
- Compound: "Oc1ccc2nc(N3CCNCC3)nc(NCCCc3ccccc3)c2c1"
  Unit: "%"
  Recorded measurement: 0
- Compound: "COc1ccc(CCNCCCCCNCCc2ccc(Cl)cc2)cc1OC"
  Unit: "%"
  Recorded measurement: -2
- Compound: "C[C@@H]1CN(c2cnn(C/C=C/c3ccc(NC(=O)c4ccc(Cl)cc4)cc3)c(=O)c2Cl)C[C@H](C)N1"
  Unit: "%"
  Recorded measurement: 82
- Compound: "C=C(C)C1CC=C(CN2CCCC(n3ccc4cc(NC(=O)c5ccco5)ccc43)CC2)CC1 (stereo not given)"
  Unit: "%"
  Recorded measurement: 95
- Compound: "COc1cc(C(=O)NCCCN2CCN(c3cc(Cl)ccc3OC)CC2)ccc1-c1nc2cc(Cl)c(Cl)cc2[nH]1"
  Unit: "%"
  Recorded measurement: 99

###

Listed next: entries and their corresponding inhibition.
Biological target: L-lactate dehydrogenase (Plasmodium falciparum (isolate CDC / Honduras)) (UniProt Q27743)
Sequence (Q27743 whole entry, looked up): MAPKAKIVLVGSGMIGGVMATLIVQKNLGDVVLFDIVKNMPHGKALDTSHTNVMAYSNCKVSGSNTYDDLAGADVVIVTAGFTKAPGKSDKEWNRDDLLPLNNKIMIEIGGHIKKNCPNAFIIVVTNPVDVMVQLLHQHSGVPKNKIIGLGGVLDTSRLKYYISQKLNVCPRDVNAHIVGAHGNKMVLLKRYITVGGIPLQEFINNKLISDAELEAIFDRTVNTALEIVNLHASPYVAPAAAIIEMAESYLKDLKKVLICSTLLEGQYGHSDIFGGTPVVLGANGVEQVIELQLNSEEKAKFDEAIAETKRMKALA
Assay: PfLDH activity inhibition – cell lysate, 3D7 strain, counter-screen for P. falciparum growth inhibition project (AID 2304);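 note: 0% = vehicle and 100% = reference inhibitor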
Conditions: P. falciparum 3D7 crude extract, LDH APAD/NBT absorbance; at 2 µM; active compounds read high

- Mol smiles: "CC(=O)c1cccc(NC(=O)c2ccc(Cl)c(S(=O)(=O)N3CCc4ccccc43)c2)c1"
  inhibition / %: 0
- Mol smiles: "COc1ccc(-c2ccc(NC(=O)c3cccc(Cl)c3)cc2)cc1CNC(C)C"
  inhibition / %: 1
- Mol smiles: "Cc1ccc(-c2nc3ccccc3o2)cc1NCc1cc(Cc2ccccc2)ccc1O"
  inhibition / %: -4
- Mol smiles: "CS(=O)(=O)c1ccc(CNCc2cccc(-c3ccc(-c4nc5ccc(C(F)(F)F)cc5[nH]4)cc3)c2)cc1"
  inhibition / %: 4
- Mol smiles: "O=S(=O)(NCCN1CCCC1)c1ccc(-c2cccc(CNCc3ccc(F)cc3)c2)cc1F"
  inhibition / %: -1

###

Listed next: entries and their corresponding growth inhibition.
Assay: inhibition of 3D7 malaria parasite growth – strain 3D7 (AID 2306);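 note: 0% = DMSO wells and 100% = chloroquine plus artemisinin control wells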
Conditions: P. falciparum 3D7 erythrocytic growth, LDH absorbance, 72 h; at 2 µM; active compounds read high
Endpoint label: growth inhibition (%)

- Compound: "O=c1ccc(CNc2nc(NCCc3ccccc3)nc3cc(Cl)ccc23)c[nH]1"
  Recorded measurement: 95
- Compound: "COc1cc(-c2nc(-c3ccccc3)c(-c3ccccc3)[nH]2)ccc1OCCN(C)C"
  Recorded measurement: 101
- Compound: "COc1cccc(NC(=O)Cn2c(C)c(C#N)c3ccccc32)c1"
  Recorded measurement: 101
- Compound: "CCc1ccc(-c2nc3cc(NC(=O)c4ccc([N+](=O)[O-])o4)ccc3o2)cc1"
  Recorded measurement: 97
- Compound: "O=C1OC2(CN1CC1CCN(Cc3ccc(O)c(Cl)c3)CC1)c1ccccc1-c1ccccc12"
  Recorded measurement: 97
- Compound: "O=C(Nc1ccc(-c2cccc(-c3nc4ccc(C(F)(F)F)cc4[nH]3)c2)cc1)Nc1ccc(F)c(F)c1F"
  Recorded measurement: 99
- Compound: "COc1cc(Nc2ncc3c(C)nc(-c4cc5ccccc5[nH]4)n3n2)cc(OC)c1OC"
  Recorded measurement: 91
- Compound: "Cc1nccn1CCNC(=O)CN1CCC2(CCC1=O)CC(=O)c1ccccc1O2 (stereo not given)"
  Recorded measurement: 98
- Compound: "Cc1sc(N2CCN(C)CC2)nc1C(=O)Nc1ccc(F)cc1C(F)(F)F"
  Recorded measurement: 92
- Compound: "CC(=O)c1ccc(NC(=O)Nc2ccc(N(C)c3ccnc(NC4CC4)n3)cc2)cc1"
  Recorded measurement: 100
- Compound: "CCc1c(CCNCCCCCCNCCc2ccc(Br)cc2)ccc(OC)c1OC"
  Recorded measurement: 99
- Compound: "CNC(=O)NC1=NC(C)(C)N(OCc2ccc(Cl)c(Cl)c2)C(NC(=O)NC)=N1"
  Recorded measurement: 99
- Compound: "N#Cc1ccc(NC(=O)c2ccc(Cc3ccc4c(c3)CCN(C3CCC3)CC4)cn2)cc1"
  Recorded measurement: 91
- Compound: "COc1ccc2ncc(F)c(CCN3[C@@H]4CC[C@H]3CC(NCc3ccc5c(c3)OCCO5)C4)c2n1 (stereo not given in full)"
  Recorded measurement: 102
- Compound: "O=C(N[C@H]1CCN(Cc2ccc(OCCCN3CCCCC3)cc2)C1)c1ccc2ccccc2c1"
  Recorded measurement: 97
- Compound: "Cn1nccc1C(=O)NCCNCc1cccc(-c2ccc(-c3nc4ccc(C(F)(F)F)cc4[nH]3)cc2)c1"
  Recorded measurement: 102
- Compound: "CCCCCCCn1c2c(c(=N)c3c1CCC3)CCCC2"
  Recorded measurement: 98
- Compound: "CCN1CCC(NCc2ccc(-c3ccc(Cl)cc3)cc2)CC1"
  Recorded measurement: 100
- Compound: "Cc1ccc(NC(=O)c2cc([N+](=O)[O-])ccc2NCc2cccnc2)cc1Cl"
  Recorded measurement: 86
- Compound: "COc1ccc(CNC(=O)NC2CCN(c3ccnc(Nc4ccc(OC)cc4)n3)C2)cc1 (stereo not given)"
  Recorded measurement: 87

###

Listed next: entries and their corresponding growth inhibition.
Experiment: antimalarial activity against Dd2 strain (AID 2302);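 note: 0% = DMSO untreated growth and 100% = chloroquine plus artemisinin killed control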
Details: P. falciparum Dd2 in RBCs, LDH growth readout, 72 h; at 2 µM; active compounds read high
Endpoint label: growth inhibition (%)

- Mol smiles: "CCc1cn2c3c(cc(C(=O)N[C@@H](Cc4cccc(Cl)c4)[C@H](O)CNC4CCCCC4)cc13)N(C)S(=O)(=O)CC2"
  Recorded measurement: 98
- Mol smiles: "Cc1cc(-c2ccc(NC(=O)Nc3ccc4nccc(N5CCN(C)CC5)c4c3)cc2C)cc(C)n1"
  Recorded measurement: 76
- Mol smiles: "COc1cc(Cl)c(C)cc1N(Cc1ccccc1-c1ccccc1)S(=O)(=O)c1ccc(C(F)(F)F)cc1"
  Recorded measurement: 62
- Mol smiles: "CS(=O)(=O)CCNCc1ccc(-c2ccc3c(Nc4ccc(Oc5ccccn5)cc4)ccnc3c2)o1"
  Recorded measurement: 99

###

Assay: inhibition of 3D7 malaria parasite growth – strain 3D7 (AID 2306);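 note: 0% = DMSO wells and 100% = chloroquine plus artemisinin control wells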
Details: P. falciparum 3D7 erythrocytic growth, LDH absorbance, 72 h; at 2 µM; active compounds read high
Listed next: entries and their corresponding growth inhibition.
Endpoint label: growth inhibition (%)

- Compound: "Cc1ccc(OC2CCN(CCCCC3(C)C(=O)Nc4ccccc43)CC2)cc1 (stereo not given)"
  Endpoint label: "growth inhibition"
  Recorded measurement: 100
- Compound: "COc1cccc(-c2cc3nc4c(c(NCCCn5ccnc5)n3n2)CCCC4)c1"
  Endpoint label: "growth inhibition"
  Recorded measurement: 100
- Compound: "CCCCc1ccc(Cc2cnc3nc(N)nc(N)c3c2C)cc1"
  Endpoint label: "growth inhibition"
  Recorded measurement: 96
- Compound: "Cc1ccc(C(=O)Nc2ccc(-c3nc4ccccc4[nH]3)cc2)cc1S(=O)(=O)N1CCOCC1"
  Endpoint label: "growth inhibition"
  Recorded measurement: 90
- Compound: "COC(=O)c1ccc(Nc2nccc(Nc3ccc(Oc4ccccc4)cc3)n2)cc1"
  Endpoint label: "growth inhibition"
  Recorded measurement: 93
- Compound: "N#Cc1ccc2nc(-c3ccccc3)[nH]c2c1"
  Endpoint label: "growth inhibition"
  Recorded measurement: 95
- Compound: "Cc1ccc(C(C(=O)Nc2ccc(N3CCNCC3)c(Cl)c2)c2ccccc2)cc1 (stereo not given)"
  Endpoint label: "growth inhibition"
  Recorded measurement: 97
- Compound: "COc1ccc(Cn2c(Nc3cccc(C(F)(F)F)c3)nc3cc(C(=O)NC(C)C)cnc32)cc1Cl"
  Endpoint label: "growth inhibition"
  Recorded measurement: 85
- Compound: "O=S(=O)(c1ccccc1OC(F)(F)F)C1C[C@H]2CC[C@@H](C1)N2S(=O)(=O)c1cccc(C(F)(F)F)c1 (stereo not given in full)"
  Endpoint label: "growth inhibition"
  Recorded measurement: 99
- Compound: "Nc1ccc(-c2ccc(NC(=O)Nc3ccccc3)cc2)cn1"
  Endpoint label: "growth inhibition"
  Recorded measurement: 91
- Compound: "O=C(Nc1ccc(Cl)c(Cl)c1)N1CCC(NCc2cccc([N+](=O)[O-])c2)CC1"
  Endpoint label: "growth inhibition"
  Recorded measurement: 97
- Compound: "CCNCc1ccc(-c2cc3ncnc(Nc4ccc(OCc5cccc(F)c5)c(Cl)c4)c3s2)[nH]1"
  Endpoint label: "growth inhibition"
  Recorded measurement: 103
- Compound: "O=C(Nc1ccc(-c2nc3ccccc3[nH]2)cc1)C1CCCN(C2CCC2)C1 (stereo not given)"
  Endpoint label: "growth inhibition"
  Recorded measurement: 90
- Compound: "CC(C)(C)OC(=O)C1CCCN(Cc2ccc(-c3cccc(-c4nc5ccccc5[nH]4)c3)cc2)C1 (stereo not given)"
  Endpoint label: "growth inhibition"
  Recorded measurement: 93
- Compound: "c1ccc(CCNCc2ccc(-c3cccc(CNc4ccc5ncccc5c4)c3)cc2)cc1"
  Endpoint label: "growth inhibition"
  Recorded measurement: 91
- Compound: "CC(C)COc1ccc(Cl)cc1Cc1nc(-c2nc3ccc(CN4CCCC4)cc3[nH]2)co1"
  Endpoint label: "growth inhibition"
  Recorded measurement: 101
- Compound: "Cc1noc(C)c1C(=O)N1CCCC(c2[nH]c3c(C)cccc3c2-c2ccncc2)C1 (stereo not given)"
  Endpoint label: "growth inhibition"
  Recorded measurement: 102
- Compound: "COc1ccc(C(=O)N2CCC(C(=O)NC(C)c3ccc(-n4ccnc4)cc3)CC2)c2ccccc12 (stereo not given)"
  Endpoint label: "growth inhibition"
  Recorded measurement: 83
- Compound: "CC(C)(C)OC(=O)NCc1ccc(Nc2nnc(-c3cccc(C(=O)NCCC(c4ccccc4)c4ccccc4)c3)o2)cc1"
  Endpoint label: "growth inhibition"
  Recorded measurement: 100
- Compound: "Cc1c(CNCCCNc2nc3ccccc3[nH]2)sc(C(F)F)c1Br"
  Endpoint label: "growth inhibition"
  Recorded measurement: 102
